test system: K-562 leukemia; assay: NCI tumour cell line growth inhibition, 48 h
quantity: TGI (µM)
Answers are plain numbers, in µM.

CC(=O)O[C@H]1CC[C@@]2(C)C(=CC[C@@H]3C2CC[C@]2(C)Nc4[nH]ncc4CC32)C1 (stereo not given in full); 52.8
CCOC(=O)N(C)C1(c2ccccc2)CCN(CCCC(=O)c2ccc(F)cc2)CC1; 72.7
CN(C)CCOC1(CC2CCCCC2)CCC(C(C)(C)C)CC1 (stereo not given); 5.93

For each entry beneath this line, provide reported TGI.
1. COc1ccc(-n2c3c(c4c(CN(C)C)c(O)c(C)cc42)CCc2ccccc2C3=O)cc1
2. O=C1O[C@]2(c3ccccc3)C(c3ccccc3)=C[C@]2(C(=O)c2ccccc2)C1=O

1: 44.4; 2: 54.3
